# Tested system: TGF-beta1 (hTGF-beta1) (Homo sapiens, UniProt P01137 P01137:279-390)
# Sequence (P01137 279-390, one chain of several): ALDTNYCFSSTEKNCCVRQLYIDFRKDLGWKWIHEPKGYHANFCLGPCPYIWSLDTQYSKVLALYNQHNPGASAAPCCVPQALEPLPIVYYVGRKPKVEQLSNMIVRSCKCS
# Measurement notes: filter; biphasic; Kd1 56.6 nM; P2 2.4%
# Conditions used: tags: R&D Systems; biotinylated form (NFTG0) used for BIAcore; chain copies: 2
Parameter measured: pKd
Quick note: pKd means taking -log10 of the concentration in moles per liter.

Measured pKd, 30-06 (ssRNA, 2'-F C and U) RNA: GGGAGGACGAUGCGGUGCCUUUAGCUUAGGCUUUGCCUUCUGCCGCAGACGACUCGCCCGA : 10.13

Ref: patent US6124449
